# composite z-score values compiled below
- System: Neuregulin-1 EGF-like domain
- Assay comment: small molecules binding NRG1 EGF domain – biochemical, small-molecule microarray, 635 nm fluorescence, primary screen (AID 1081);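 further: binding of the protein to compounds printed on small-molecule microarray slides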
- Test conditions: higher = more signal
Measured attribute: composite z-score

Molecule	Measured attribute	Test value
C=CCN1C(=O)[C@@]2(O[C@@H](CCn3cc([C@H](O)c4ccccc4)nn3)[C@H]([Si](C)(C)c3ccc(OC)cc3)[C@H]2C)c2cc(N3C(=O)c4cccc5cccc3c45)ccc21	composite z-score	0.482
C=CC[C@@]1(C(=O)OC)N=C(c2ccc(OCCCO)cc2)O[C@@H]1c1ccccc1N=[N+]=[N-]	composite z-score	1.44
CC(C)c1nc2cc(Br)ccc2c(=O)o1	composite z-score	0.565
COC(=O)C1=CC(CCCO)=CC(c2cccs2)N(Cc2cc3c(cc2Br)OCO3)C=C1C(=O)OC (configuration not stated)	composite z-score	1.33
CC(C)OC(=O)CC(=O)CC(O)c1cccc([N+](=O)[O-])c1 (configuration not stated)	composite z-score	0.947
CCCCCCc1nc(-c2ccc(-c3ccc(Cl)c(Cl)c3)o2)cc2c1[Si](C(C)C)(C(C)C)OC2	composite z-score	0.262
C=CCOC(=O)[C@H]1[C@@H]2C(=O)O[C@@H](c3ccccc3)[C@@H](c3ccccc3)N2[C@@H](c2ccc(OCCOC(=O)[C@@H]3C[C@@H]4C(=O)N[C@@H](CCCC[N+](C)(C)C)C(=O)N4[C@@H]3c3ccc(O)cc3)cc2)[C@]12C(=O)Nc1ccc(I)cc12	composite z-score	1.11
[N-]=[N+]=Nc1ccccc1[C@H]1OC(c2ccc(OCCCO)cc2)=N[C@@]1(Cc1ccccc1)C(=O)NCC(O)CO (some centres not stated)	composite z-score	1.12
O=C1[C@H]2C=C(I)[C@H](C[C@@H]2OCCCCCCO)[C@@]12CO2	composite z-score	-0.175
CC(=O)NCCCC[C@@H]1NC(=O)[C@H]2C[C@@H](C(=O)NCCCCCCNC(=O)CS)[C@@H](c3cccc(OCCO)c3)N2C1=O	composite z-score	1.42
CC1=C([C@H](O)CCc2ccccc2)[C@H](CO)n2c(=O)n(-c3ccccc3)c(=O)n2C1	composite z-score	-0.56
O=C1C2C=CC(C(O)c3c(F)cccc3Cl)N(Nc3ccc([N+](=O)[O-])cc3)C2C(=O)N1c1ccccc1 (configuration not stated)	composite z-score	1.01
COc1ccc([Si](C)(C)[C@@H]2[C@@H](CC(=O)N(CCO)Cc3ccccc3)O[C@]3(C(=O)N(Cc4ccc(N5C(=O)c6cccc7cccc5c67)cc4)c4ccccc43)[C@H]2C)cc1	composite z-score	0.956
C=CCC(OC(C)=O)[C@@H]1[C@@H](N(Cc2ccc(-c3cccc(C(F)(F)F)c3)o2)C(=O)Cc2ccc(F)cc2)c2cc(OCCCO)ccc2N1C(=O)Cc1ccc2ccccc2c1 (some centres not stated)	composite z-score	-0.285
CCOC(=O)C[C@H]1[C@H](OC(=O)c2ccccc2-c2ccccc2)[C@@H](NC(=O)c2ccc3ccccc3c2)c2cc(OCCCO)ccc2N1C(=O)Cc1ccc(OC)cc1	composite z-score	-0.58
CCCCC(O)C1C=CC2C(=O)N(c3ccccc3)C(=O)C2N1Nc1ccc(C#N)cc1 (configuration not stated)	composite z-score	1.41
C=C(/C(=C/C[C@@H](OC(C)=O)c1cccc(OCCO)c1)c1cnc2ccccc2c1)C(C)C	composite z-score	1.08

----------
# z-score values compiled below
- Assay comment: resazurin metabolic signal in A549 cells – cell-based, resazurin fluorescence, 24 h, PK04 Diversity Set, profiling panel (AID 1171); further: test concentration not given here
- Test conditions: A549 viability, higher = more signal, called active from +8 up or from −8 down

Smi	z-score
C[C@@H]1ON(c2ccc(I)cc2)[C@H](c2cccc(NC(=O)OCC3c4ccccc4-c4ccccc43)c2)[C@H]1C(=O)N1C(=O)OC[C@H]1Cc1ccccc1	0.623
COC(=O)C[C@H]1O[C@@]2(C[C@@H]1[Si](C)(C)C)C(=O)N(C)c1ccccc12	0.543
Cc1ccc(S[C@]2(C(=O)NCc3ccccc3)CC(=O)N(Cc3ccccc3C(F)(F)F)[C@@H]2c2ccc(CO)cc2)cc1	-1.35
Cc1ccc(S[C@]2(C(=O)NCCCN(C)C)CC(=O)N(C3Cc4ccccc4C3)[C@@H]2c2ccc(CO)cc2I)cc1	0.471
COC(=O)c1cccc([C@H]2OC(=CC(=O)OC(C)C)C[C@@H](c3cccc(C(=O)OC)c3)O2)c1	-0.0417
O=C1C[C@@](C(=O)O)(c2ccc([N+](=O)[O-])cc2)[C@@H](c2ccc(CO)cc2)N1C1CCCCC1	0.361

----------
# z-score values compiled below
- Assay comment: JC-1 mitochondrial signal, unstimulated myeloma cells – cell-based, JC-1 fluorescence, RPMI8226, 24 h, 100 nL compound, profiling panel (AID 1169); further: test concentration not given here
- Test conditions: JC-1 mitochondrial potential fluorescence, higher = more signal

Molecule	z-score
COC(=O)[C@@]1(Cc2ccccc2)[C@H]2c3cc(C(=O)N(C)C)n(CCO)c3C[C@H]2CN1C(=O)c1ccccc1	0.127
CCN(CC)c1ccc(N2CC=CC34O[C@@H]5C=CCCOC(=O)C5[C@H]3C(=O)N(C(C)CO)[C@@H]4C2=O)cc1 (some centres not stated)	-0.487
CO[C@H]1O[C@H](CO)[C@@H](OC(=O)Nc2ccccc2-c2ccccc2)[C@H](OC(=O)Nc2ccccc2)[C@H]1OC(=O)Nc1ccccc1	-0.747
O=C1O[C@@H](c2ccccc2)[C@@H](c2ccccc2)N2[C@@H](c3ccc(OCCO)cc3)[C@]3(C(=O)Nc4ccc(C#CC5(O)CCCCCC5)cc43)[C@@H](C(=O)Nc3nc4ccccc4s3)[C@H]12	-0.805
O=C(NCCN1CCOCC1)[C@@H]1c2ccccc2C(=O)N(Cc2ccccc2C(F)(F)F)[C@H]1c1ccc(CO)cc1	-0.335
CN1C(=O)[C@@H]2[C@@H](CC(COc3ccccc3)=C3[C@@H](CCc4ccccc4)OB(O)C[C@@H]32)C1=O	0.122
O=C1OCCC=C[C@H]2OC34C=CCN(c5ccc6ccccc6c5)C(=O)[C@H]3N(CCO)C(=O)[C@@H]4C12 (some centres not stated)	0.122

----------
# z-score values compiled below
- Assay comment: growth effects on S. cerevisiae YJM789 – YJM789 clinical isolate, OD600, 24 h, basal, primary screen (AID 1089);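 further: growth of clinical yeast isolate S. cerevisiae YJM 789 seeded 1000 cells per well; test concentration not given here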
- Test conditions: higher = more signal, called active from +8 up or from −8 down
Activity calls are given as the source filed them.
Measured attribute: z-score

Molecule	Test value
[N-]=[N+]=Nc1ccccc1[C@H]1OC(c2ccc(OCCCO)cc2)=N[C@@]1(Cc1ccccc1)C(=O)NCC(O)CO (some centres not stated)	-0.858 (inactive)
COCCOC(=O)N1C(=O)[C@@]2(c3ccccc31)[C@H](c1ccc(O)cc1)N1[C@H](c3ccccc3)[C@H](c3ccccc3)OC(=O)[C@H]1[C@@H]2C(=O)N1CCCCCCC1	-0.322 (inactive)
CC(C)(C)OC(=O)CC[C@@]1(C(=O)NCCN2CCOCC2)N=C(c2ccc(OCCCO)cc2)O[C@@H]1c1ccccc1CN=[N+]=[N-]	-0.865 (inactive)
CN1C(=O)C2C(C1=O)C1C=C(CCCO)C2C(C2CC2)N1Cc1cccc(OC(F)(F)F)c1 (configuration not stated)	-1.07 (inactive)
COC(=O)[C@@]1(Cc2ccc(OC)cc2)[C@H]2c3cc(C(=O)N4CCCC4)n(CCn4cc([N+](=O)[O-])nc4C)c3C[C@H]2CN1C(=O)c1ccccc1	-0.382 (inactive)
C=CCC(OC(C)=O)[C@@H]1[C@@H](N(Cc2ccc(-c3cccc(C(F)(F)F)c3)o2)C(=O)Cc2ccc(F)cc2)c2cc(OCCCO)ccc2N1C(=O)Cc1ccc2ccccc2c1 (some centres not stated)	-0.554 (inactive)
COC(=O)C1(Cc2ccccc2)C=C2C(=C(C)C(=O)C2C)CN1 (configuration not stated)	-1.06 (inactive)

----------
- System under test: NADPH oxidase 5 (Homo sapiens)
- Assay comment: compounds shifting NOX5 Amplex Red fluorescence – cell-based, HEK293-NOX5, NOX inhibitor project, primary screen (AID 1161)
- Test conditions: HEK293-NOX5, ionomycin, 45 min, higher = more signal
Short version: z-score at least -2 is True, less is False.

Molecule	Qualitative label
COc1ccc(C#Cc2ccc3c(c2)[C@]2(C(=O)N3)[C@H](C(=O)O)[C@H]3C(=O)O[C@H](c4ccccc4)[C@H](c4ccccc4)N3[C@@H]2c2ccccc2OCCO)cc1	False
CN1C(=O)C2C=CC(C(O)c3ccc(-c4ccccc4)s3)N(NC(=O)OC(C)(C)C)C2C1=O (configuration not stated)	True
C=CCC(OC(C)=O)[C@@H]1[C@@H](N(Cc2cccc3ccccc23)C(=O)Cc2ccc(OC)cc2)c2cc(OCCCO)ccc2N1C(=O)Cc1ccc2ccccc2c1 (some centres not stated)	True
COc1cc(CO)cc(I)c1O[C@H]1C=C(C(=O)NCCO)C[C@@H](NC2CCCCCC2)[C@@H]1O	True
CC(C)C[C@@H]1NC(=O)[C@@]23C(=O)N[C@@H](Cc4ccccc4)C2[C@H](C)[C@@]2(C)O[C@H]2C3/C=C/C/C=C\CNC(=O)CNC1=O (some centres not stated)	True
Cc1ccc(F)cc1S(=O)(=O)N[C@H]1CCN(Cc2ccc(OC(C)C)cc2)C1	False
CCOC(=O)C[C@H]1[C@H](OC(=O)Cc2ccc3c(c2)OCO3)[C@@H](NC(=O)Cc2ccc(OC)cc2)c2cc(OCCCO)ccc2N1C(=O)Cc1ccc(OC)cc1	True

Reference source: PubChem BioAssay
